The reported measurements were obtained from paper PMC5914092.

// values below are reported pIC50
assayed system: rat lens aldose reductase (RLAR) (Rattus norvegicus, UniProt P07943)
Construct: The supernatant was collected and used as RLAR; from tissue; host or cells: lens of Sprague-Dawley rats (supernatant of the homogenate after 10,000g)
assay method text: Determination of RLAR inhibition (NADPH absorbance decrease at 340 nm, DL-glyceraldehyde substrate)
Assay type: biochemical
measurement context: crude RLAR homogenate; inhibitor concentrations 1, 5, 10 μg/mL; mean ± RSD; NI: no inhibition
pIC50: −log10 of the molar value.

molecule | pIC50
O=c1cc(-c2ccc(O)cc2)oc2cc(O)c(O)c(O)c12 [Compound 8, 6-hydroxyapigenin] | < 4.55
COc1cc2oc(-c3ccc(O)cc3)c(OC)c(=O)c2c(O)c1OC | < 4.55

---

assay method text: DPPH free radical scavenging capacity
measurement context: concentrations 15, 30, 75 μg/mL; mean ± RSD; NI: no inhibition
// values below are reported IC50

compound | IC50
O=c1cc(-c2ccc(O)cc2)oc2cc(O[C@@H]3O[C@H](CO)[C@@H](O)[C@H](O)[C@H]3O)cc(O)c12 [Compound 1, apigenin-7-O-β-D-glucoside] | > 250 µM
O=c1cc(-c2ccc(O)cc2)oc2cc(O)c(O)c(O)c12 [Compound 8, 6-hydroxyapigenin] | > 208 µM
COc1cc2oc(-c3ccc(O)cc3)c(OC)c(=O)c2c(O)c1OC | > 208 µM
